- METHOD NOTES: Quantitative High-Throughput drug screen in 47 multiple myeloma cell lines against the NCATS MIPE library collection: KMS12PE_JCRB cell viability assay (AID 1918972); also: nearly all actives have a fitted effect of over 30% in size
- STATED CONDITIONS: KMS12PE myeloma viability, CellTiter-Glo ATP, 48 h; series mostly up to 45.8 µM
Results filed as inconclusive are left out. The source made the active and inactive calls. Calls follow the shape of the dose curve; as a rule, active = well fitted cell-killing curve with a large enough effect; inconclusive = small, poorly fitted or top-dose-only effect, or effect the other way; inactive = no such curve, though single readings can be large or run the other way.
Possible outcomes: active, inactive

[[record]]
molecule = "CC1(C)CC(O)CC(C)(C)N1[O]"
cat = "inactive"

[[record]]
molecule = "C[C@H](CCC(=O)O)[C@H]1CCC2C3C[C@H](O)[C@@H]4C[C@H](O)CC[C@]4(C)C3CC[C@@]21C (some centres undefined)"
cat = "inactive"

[[record]]
molecule = "NC(=O)N1CCC(CC(=O)N2CCC([C@H]3c4ncc(Br)cc4CCc4cc(Cl)cc(Br)c43)CC2)CC1"
cat = "active"

[[record]]
molecule = "C[C@]12C=CC(=O)N[C@@H]1CC[C@H]1[C@H]3CC[C@@H](C(=O)Nc4cc(C(F)(F)F)ccc4C(F)(F)F)[C@@]3(C)CC[C@@H]12"
cat = "inactive"

[[record]]
molecule = "CC(=O)OCC(=O)[C@@]1(O)CC[C@H]2[C@@H]3CCC4=CC(=O)CC[C@]4(C)[C@@H]3C(=O)C[C@@]21C"
cat = "inactive"

[[record]]
molecule = "CC(Oc1ccc(O)cc1)(P(=O)(O)O)P(=O)(O)O"
cat = "inactive"

[[record]]
molecule = "C[N+]1(C)[C@@H]2C[C@@H](OC(=O)C(O)(c3cccs3)c3cccs3)C[C@H]1[C@@H]1O[C@@H]12"
cat = "inactive"

[[record]]
molecule = "CCn1c(=O)c2c(nc(C=Cc3ccc(OC)c(OC)c3)n2C)n(CC)c1=O"
cat = "active"

[[record]]
molecule = "O=C1NC(=O)[C@@H](c2cn3c4c(cccc24)CCC3)[C@H]1c1c[nH]c2ccccc12"
cat = "active"

